# target.under.test: T1, human B7-H4 on the cell surface (human, UniProt Q7Z7D3 25-282)
# T1 construct: whole, on cells; also called hu B7-H4; CHO-K1/huB7-H4
# T1 sequence (looked up): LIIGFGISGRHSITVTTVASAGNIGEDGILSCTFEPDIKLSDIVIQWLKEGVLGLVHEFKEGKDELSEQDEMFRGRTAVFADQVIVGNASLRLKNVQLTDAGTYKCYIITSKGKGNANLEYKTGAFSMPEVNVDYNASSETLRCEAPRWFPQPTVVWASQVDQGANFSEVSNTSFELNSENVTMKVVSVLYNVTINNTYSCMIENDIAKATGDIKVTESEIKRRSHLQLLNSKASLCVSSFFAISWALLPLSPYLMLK
# assay.comment: FACS, CHO-K1/hu B7-H4 cells
Consider the following binders; for each one, report its EC50.
Numbers only, in nM.

See these solved cases before continuing.
# binder, EC50 [nM]
records = [
    ("PR007195 (antibody, IgG1, V domains shown, also called charge variant of PR006004 (V46E, G55S, R56D, A61E)) VH: EVQLVESGGGLVQPGGSLRLSCAASGFAFSNYWMHWARQVPGKGREWISRISGDSDSTSYEDSVKGRFTISRDNAKNMVYLQMNNLRAEDTAVYYCARDRFGDDYYYGMNVWGQGTTVTVSS", 5.65),
    ("PR007203 (antibody, IgG1, V domains shown, also called charge variant of PR006004 (V46E, G55S, R56T, A61E)) VH: EVQLVESGGGLVQPGGSLRLSCAASGFAFSNYWMHWARQVPGKGREWISRISGDSTSTSYEDSVKGRFTISRDNAKNMVYLQMNNLRAEDTAVYYCARDRFGDDYYYGMNVWGQGTTVTVSS", 5.41),
]

Answer with the recorded EC50 of PR007202 (antibody, IgG1, V domains shown, also called charge variant of PR006004 (V46E, G55S, R56T)) VH: EVQLVESGGGLVQPGGSLRLSCAASGFAFSNYWMHWARQVPGKGREWISRISGDSTSTSYADSVKGRFTISRDNAKNMVYLQMNNLRAEDTAVYYCARDRFGDDYYYGMNVWGQGTTVTVSS only.
5.58
